# Test system: Staphylococcus aureus FDA 209PJc-1
# Assay details: Antibacterial activity, agar-dilution MIC, organism No. 1
# Assay type: cell-based
# Assay setup: Staphylococcus aureus, FDA209PJC1; Organism No. 1, bouillon-agar; read-out: Minimum Inhibitory Concentration

# Molecule, Modifier, MIC / µg/mL
rows = [
    ("[C-]#[N+]C12CC3(/C=C/C(=O)OCc4c(C)cc(C)cc4C)OC3C1O2 (stereo not shown)", "=", 3.13),
    ("[C-]#[N+]C12CC3(/C=C/C(=O)Nc4cccc(C)c4)OC3C1O2 (stereo not shown)", "<", 0.05),
    ("[C-]#[N+]C12CC3(/C=C/C(=O)Nc4ccccc4OC)OC3C1O2 (stereo not shown)", "=", 1.56),
    ("[C-]#[N+]C12CC3(/C=C/C(=O)Nc4ccc(C(F)(F)F)cc4)OC3C1O2 (stereo not shown)", "=", 0.1),
    ("[C-]#[N+]C12CC3(/C=C/C(=O)OCC(=O)c4ccc([N+](=O)[O-])cc4)OC3C1O2 (stereo not shown)", "=", 12.5),
    ("[C-]#[N+]C12CC3(/C=C/C(=O)OCC(=O)c4ccccc4)OC3C1O2 (stereo not shown)", "=", 0.2),
    ("[C-]#[N+]C12CC3(/C=C/C(=O)Nc4ccccc4C(N)=O)OC3C1O2 (stereo not shown)", "=", 12.5),
    ("[C-]#[N+]C12CC3(/C=C/C(=O)OCc4cc([N+](=O)[O-])ccc4O)OC3C1O2 (stereo not shown)", ">", 200),
    ("[C-]#[N+]C12CC3(/C=C/C(=O)NCc4ccccc4)OC3C1O2 (stereo not shown)", "=", 0.78),
    ("[C-]#[N+]C12CC3(/C=C/C(=O)NC4C(=O)N5C(C(=O)OCC(=O)c6ccc(Br)cc6)=C(C)CSC45)OC3C1O2 (stereo not shown)", ">", 100),
    ("[C-]#[N+]C12CC3(/C=C/C(=O)N[C@@H](CCC(=O)OCc4ccccc4)C(=O)OCc4ccccc4)OC3C1O2 (stereo partly shown)", "=", 12.5),
    ("[C-]#[N+]C12CC3(/C=C/C(=O)OCC(C)C)OC3C1O2 (stereo not shown)", "=", 0.39),
    ("[C-]#[N+]C12CC3(/C=C/C(=O)N4CCC[C@H]4C(=O)OCc4ccccc4)OC3C1O2 (stereo partly shown)", "=", 200),
    ("[C-]#[N+]C12CC3(/C=C/C(=O)NOCc4ccccc4)OC3C1O2 (stereo not shown)", "<", 0.05),
    ("[C-]#[N+]C12CC3(/C=C/C(=O)O)OC3C1O2 (stereo not drawn) [α substituted acrylic acid, reference compound]", "=", 25),
    ("[C-]#[N+]C12CC3(/C=C/C(=O)N4CCN(C)CC4)OC3C1O2 (stereo not shown)", "=", 200),
]

* * *

MIC by entry:
# Tested on: Proteus morganii IFO 3848
# Assay details: Antibacterial activity, agar-dilution MIC, organism No. 18
# Type: cell-based
# Assay setup: Morganella morganii, IFO3848; Organism No. 18, bouillon-agar; read-out: Minimum Inhibitory Concentration
Measured quantity: MIC (µg/mL)

# Compound, Test target, Measured quantity, Endpoint result
records = [
    ("[C-]#[N+]C12CC3(/C=C/C(=O)OCc4cccc([N+](=O)[O-])c4)OC3C1O2 (centres unmarked)", "Proteus morganii IFO 3848", "MIC", 200),
    ("[C-]#[N+]C12CC3(/C=C/C(=O)OC)OC3C1O2 (centres unmarked)", "Proteus morganii IFO 3848", "MIC", 6.25),
    ("[C-]#[N+]C12CC3(/C=C/C(=O)OCC(=O)c4cccc(OC)c4)OC3C1O2 (centres unmarked)", "Proteus morganii IFO 3848", "MIC", 12.5),
    ("[C-]#[N+]C12CC3(/C=C/C(=O)Nc4ccc(OC(C)C)cc4)OC3C1O2 (centres unmarked)", "Proteus morganii IFO 3848", "MIC", 6.25),
    ("[C-]#[N+]C12CC3(/C=C/C(=O)Nc4ccc5c(c4)CCC5)OC3C1O2 (centres unmarked)", "Proteus morganii IFO 3848", "MIC", 3.13),
]

* * *

# System: Escherichia coli K12 C600 IAM 1264
# Assay details: Antibacterial activity, agar-dilution MIC, organism No. 6
# Format: cell-based
# Assay setup: Escherichia coli, IAM1264; Organism No. 6, bouillon-agar; read-out: Minimum Inhibitory Concentration
# From the text: Agar-dilution method was used for determination of the antibacterial activity and antifungal activity while using bouillon-agar culture medium, and the minimum inhibitory concentration of the specimen was expressed by μg/ml of the culture medium.
Listing of entries alongside the reported MIC.

# Molecule, Modifier, MIC, µg/mL
rows = [
    ("[C-]#[N+]C12CC3(/C=C/C(=O)Nc4ccccc4Cl)OC3C1O2 (stereo not shown) [compound 42]", ">", 200),
    ("[C-]#[N+]C12CC3(/C=C/C(=O)Nc4cccc([N+](=O)[O-])c4)OC3C1O2 (stereo not shown) [compound 48]", "=", 25),
    ("[C-]#[N+]C12CC3(/C=C/C(=O)Nc4ccc(C(F)(F)F)cc4)OC3C1O2 (stereo not shown) [compound 46]", ">", 200),
    ("[C-]#[N+]C12CC3(/C=C/C(=O)Nc4cccc(Cl)c4)OC3C1O2 (stereo not shown) [compound 41]", "=", 200),
    ("[C-]#[N+]C12CC3(/C=C/C(=O)Nc4ccc(C(C)=O)cc4)OC3C1O2 (stereo not shown) [compound 80]", ">", 200),
    ("[C-]#[N+]C12CC3(/C=C/C(=O)Nc4ccc(I)cc4)OC3C1O2 (stereo not shown) [compound 45]", ">", 200),
    ("[C-]#[N+]C12CC3(/C=C/C(=O)OCC)OC3C1O2 (stereo not drawn) [Compound No. 2, ethyl β-substituted acrylate]", "=", 25),
    ("[C-]#[N+]C12CC3(/C=C/C(=O)Nc4ccccc4C)OC3C1O2 (stereo not shown) [compound 39]", ">", 200),
    ("[C-]#[N+]C12CC3(/C=C/C(=O)NOCc4ccccc4)OC3C1O2 (stereo not shown) [compound 82]", "=", 12.5),
    ("[C-]#[N+]C12CC3(/C=C/C(=O)Nc4ccc(OC(C)C)cc4)OC3C1O2 (stereo not shown) [compound 74]", ">", 200),
    ("[C-]#[N+]C12CC3(/C=C/C(=O)OCc4c(C)cc(C)cc4C)OC3C1O2 (stereo not shown) [compound 11]", "=", 25),
    ("[C-]#[N+]C12CC3(/C=C/C(=O)OCC(=O)c4cccc(OC)c4)OC3C1O2 (stereo not shown) [compound 7]", "=", 12.5),
    ("[C-]#[N+]C12CC3(/C=C/C(=O)Nc4ccc(N)cc4)OC3C1O2 (stereo not shown) [compound 59]", "=", 25),
    ("[C-]#[N+]C12CC3(/C=C/C(=O)NC4=NCCS4)OC3C1O2 (stereo not shown) [compound 66]", "=", 50),
    ("[C-]#[N+]C12CC3(/C=C/C(=O)OCc4ccccc4[N+](=O)[O-])OC3C1O2 (stereo not shown) [compound 13]", "=", 100),
    ("[C-]#[N+]C12CC3(/C=C/C(=O)OCc4cccc([N+](=O)[O-])c4)OC3C1O2 (stereo not shown) [compound 14]", ">", 200),
    ("[C-]#[N+]C12CC3(/C=C/C(=O)N[C@@H](Cc4ccccc4)C(=O)OCc4ccccc4)OC3C1O2 (stereo partly shown) [compound 31]", ">", 200),
    ("[C-]#[N+]C12CC3(/C=C/C(=O)NC4CCCCC4)OC3C1O2 (stereo not shown) [compound 20]", ">", 200),
    ("[C-]#[N+]C12CC3(/C=C/C(=O)Nc4cccc(N)c4)OC3C1O2 (stereo not shown) [compound 60]", "=", 25),
    ("[C-]#[N+]C12CC3(/C=C/C(=O)OC)OC3C1O2 (stereo not shown) [Compound No. 1]", "=", 12.5),
    ("[C-]#[N+]C12CC3(/C=C/C(=O)Nc4ccc(C(=O)OC)cc4)OC3C1O2 (stereo not shown) [compound 49]", "=", 50),
    ("[C-]#[N+]C12CC3(/C=C/C(=O)Nc4nccs4)OC3C1O2 (stereo not shown) [compound 65]", "=", 6.25),
    ("[C-]#[N+]C12CC3(/C=C/C(=O)NC4C(=O)N5C(C(=O)OCC(=O)c6ccc(Br)cc6)=C(C)CSC45)OC3C1O2 (stereo not shown) [compound 34]", ">", 100),
    ("[C-]#[N+]C12CC3(/C=C/C(=O)OCC(C)C)OC3C1O2 (stereo not shown) [compound 18]", "=", 12.5),
    ("[C-]#[N+]C12CC3(/C=C/C(=O)N4CCN(C)CC4)OC3C1O2 (stereo not shown) [compound 23]", "=", 50),
    ("[C-]#[N+]C12CC3(/C=C/C(=O)NCc4ccccc4)OC3C1O2 (stereo not shown) [Compound No. 24]", "=", 6.25),
    ("[C-]#[N+]C12CC3(/C=C/C(=O)Nc4ccc(C(=O)O)cc4)OC3C1O2 (stereo not shown) [compound 51]", "=", 200),
    ("[C-]#[N+]C12CC3(/C=C/C(=O)OCc4cc([N+](=O)[O-])ccc4OC)OC3C1O2 (stereo not shown) [Compound No. 16]", "=", 200),
    ("[C-]#[N+]C12CC3(/C=C/C(=O)OCc4cccc(OC)c4)OC3C1O2 (stereo not shown) [compound 12]", "=", 6.25),
    ("[C-]#[N+]C12CC3(/C=C/C(=O)OCc4ccccc4)OC3C1O2 (stereo not drawn) [Compound No. 10, benzyl β-substituted acrylate]", "=", 3.13),
    ("[C-]#[N+]C12CC3(/C=C/C(=O)Nc4cccc(OC)c4)OC3C1O2 (stereo not shown) [compound 54]", "=", 50),
    ("[C-]#[N+]C12CC3(/C=C/C(=O)NOC)OC3C1O2 (stereo not shown) [compound 81]", "=", 12.5),
    ("[C-]#[N+]C12CC3(/C=C/C(=O)Nc4ccc5c(c4)OCO5)OC3C1O2 (stereo not shown) [compound 64]", "=", 12.5),
    ("[C-]#[N+]C12CC3(/C=C/C(N)=O)OC3C1O2 (stereo not shown) [Compound No. 19]", "=", 6.25),
]
